Readings of activity change, negative = cytotoxicity for the listed molecules
assay: Viability Counterscreen for CMV-Luciferase Assay of Inhibitors of ATXN expression; settings: HEK-293 CMV-luciferase cells viability, protease fluorescence, 24 h; series mostly up to 57.5 µM; note: % is set by controls: 0 for no effect and ±100 for the full control effect; nearly all actives have a fitted effect of over 55% in size
In all, about 2,100 compounds went through this assay and about 320 (15%) were called active. About 52% were inconclusive and are not listed. The list shows a part of the results.

{"molecule": "CC[C@@]1(O)C(=O)OCc2c1cc1n(c2=O)Cc2cc3c(NC(=O)CN)cccc3nc2-1", "activity change, negative = cytotoxicity": "25.7% [at 11.4 µM] (inactive)"}
{"molecule": "COC1C(O)C(C)OC(OC2C(Oc3cccc4c(O)c5c(=O)oc6ccc(C)c7c(=O)oc(c34)c5c67)OC(C)C(O)C2O)C1O (centres undefined)", "activity change, negative = cytotoxicity": "7.77% [at 11.4 µM] (inactive)"}
{"molecule": "C[C@H]1CCC[C@H](O)CCCCCc2cc(O)cc(O)c2C(=O)O1", "activity change, negative = cytotoxicity": "-5.55% [at 11.4 µM] (inactive)"}
{"molecule": "COC(=O)C(O)(c1ccc(NC(=S)NC(=O)c2ccc(Cl)cc2Cl)c(C)c1)C(F)(F)F (centres undefined)", "activity change, negative = cytotoxicity": "1.53% [at 11.4 µM] (inactive)"}
